test system: S. aureus 308A-1; experiment: Antibacterial activity in mice, s.c. (ED50); format: in vivo; conditions: Staphylococcus aureus, 308A1, sc
ED50 listing for selected compounds.
Kindly provide the numeric value in mg/kg only, without the unit symbol.

See these solved cases before continuing.
Input: Can you look up the measured ED50 of C/C=C\C=C\C(=O)NCC(O)CC(CC(=O)NCCC(=N)N)NCC (centres unmarked) for me?
Output: 25

Input: Likewise for C/C=C\C=C\C(=O)NCC(O)CC(CC(=O)NCCC(=N)N)NC(=O)C(N)CCCCC(=O)OC (centres unmarked) [Compound 86b] ?
Output: 25

Input: Queued: CN(CC(=O)O)NC(=O)C[C@H](N)C[C@@H](O)CN [Negamycin, reference compound]
Output: 38.6

Input: Ok, now C/C=C\C=C\C(=O)NCC(O)CC(CC(=O)NCCC(=N)N)NC (centres unmarked)
Output: 9.64

Moving on to the next compound.
Input: # lookup: ED50 of C=C/C=C/C(=O)NCC(O)CC(N)CC(=O)NCCC(=N)N (centres unmarked) [Compound 38b]
Output: 6.25
